// provenance: the NIST ThermoML archive (doi:10.1016/j.jct.2016.01.017)

Exercise: for every item that follows, state its recorded activity coefficient.
Assay: activity coefficient (dimensionless); of the first substance listed, at infinite dilution; xn = mol fraction of the nth substance listed
Conditions: 318.15 K; 100 kPa; Liquid; Chromatography; x1 = 0
Simply state the number, no unit and no words.

Req: Output activity coefficient of CC#N [acetonitrile] + CCCC[n+]1ccc(C#N)cc1.O=S(=O)([N-]S(=O)(=O)C(F)(F)F)C(F)(F)F
Resp: 0.449

Req: // fetch activity coefficient given entry C1CCCCCC1 [cycloheptane] + CCCC[n+]1ccc(C#N)cc1.O=S(=O)([N-]S(=O)(=O)C(F)(F)F)C(F)(F)F
Resp: 20.6

Req: Report activity coefficient, nothing else, for this molecule: C=CCCCCCC [oct-1-ene] + CCCC[n+]1ccc(C#N)cc1.O=S(=O)([N-]S(=O)(=O)C(F)(F)F)C(F)(F)F
Resp: 30.1

Req: Answer with reported activity coefficient of CCCOCCC [dipropyl ether] + CCCC[n+]1ccc(C#N)cc1.O=S(=O)([N-]S(=O)(=O)C(F)(F)F)C(F)(F)F
Resp: 8.84

Req: Supply reported activity coefficient belonging to this molecule: C1CCCCC1 [cyclohexane] + CCCC[n+]1ccc(C#N)cc1.O=S(=O)([N-]S(=O)(=O)C(F)(F)F)C(F)(F)F
Resp: 16.3

Req: Please report activity coefficient for the following molecule: CCC[N+](=O)[O-] [1-nitropropane] + CCCC[n+]1ccc(C#N)cc1.O=S(=O)([N-]S(=O)(=O)C(F)(F)F)C(F)(F)F
Resp: 0.768

Req: In one line, give reported activity coefficient of the entry C1CCOC1 [tetrahydrofuran] + CCCC[n+]1ccc(C#N)cc1.O=S(=O)([N-]S(=O)(=O)C(F)(F)F)C(F)(F)F .
Resp: 0.661

Req: Give the reported value of activity coefficient for this record: CCCCCO [pentan-1-ol] + CCCC[n+]1ccc(C#N)cc1.O=S(=O)([N-]S(=O)(=O)C(F)(F)F)C(F)(F)F
Resp: 3.58

Req: Supply reported activity coefficient belonging to this molecule: CCOC(C)=O [ethyl acetate] + CCCC[n+]1ccc(C#N)cc1.O=S(=O)([N-]S(=O)(=O)C(F)(F)F)C(F)(F)F
Resp: 0.89

Req: Indicate its recorded activity coefficient; the molecule in question is C=C(C)c1ccccc1 [(1-methylethenyl)benzene] + CCCC[n+]1ccc(C#N)cc1.O=S(=O)([N-]S(=O)(=O)C(F)(F)F)C(F)(F)F
Resp: 2.09

Req: Please look at this molecule and report its activity coefficient: Cc1ccccc1 [toluene] + CCCC[n+]1ccc(C#N)cc1.O=S(=O)([N-]S(=O)(=O)C(F)(F)F)C(F)(F)F
Resp: 1.54

Req: Respond only with activity coefficient recorded for CCCCCCCC [octane] + CCCC[n+]1ccc(C#N)cc1.O=S(=O)([N-]S(=O)(=O)C(F)(F)F)C(F)(F)F
Resp: 59.9

Req: Identify measured activity coefficient associated with CCOCC [diethyl ether] + CCCC[n+]1ccc(C#N)cc1.O=S(=O)([N-]S(=O)(=O)C(F)(F)F)C(F)(F)F
Resp: 3.24

Req: Return reported activity coefficient. Input molecule: c1ccsc1 [thiophene] + CCCC[n+]1ccc(C#N)cc1.O=S(=O)([N-]S(=O)(=O)C(F)(F)F)C(F)(F)F
Resp: 0.96
